Can you tell me MIC for the items I'm about to list?
# Tested on: Pseudomonas aeruginosa
# ASSAY_DETAILS: Antimicrobial activity against Pseudomonas aeruginosa PAO1 biofilm by Etest method
# Format: functional
Param answer (str): number followed by unit.

Reported MIC of CC(C)(O/N=C(\C(=O)N[C@@H]1C(=O)N2C(C(=O)[O-])=C(C[n+]3ccccc3)CS[C@H]12)c1csc(N)n1)C(=O)O : 1.5 µg/mL

get_value(item= C[C@@H](O)[C@H]1C(=O)N2C(C(=O)O)=C(SCCNC=N)C[C@H]12 [IMIPENEM ANHYDROUS] , readout=MIC) returns 1.5 µg/mL

Lookup result for C[C@H]1[C@H](NC(=O)/C(=N\OC(C)(C)C(=O)O)c2csc(N)n2)C(=O)N1S(=O)(=O)O ; measured MIC: 2 µg/mL

Quick note, MIC for CO/N=C(\C(=O)N[C@@H]1C(=O)N2C(C(=O)[O-])=C(C[N+]3(C)CCCC3)CS[C@H]12)c1csc(N)n1 [CEFEPIME] landed at 1.5 µg/mL

Note to self: MIC recorded for NC[C@H]1O[C@H](O[C@H]2[C@H](O)[C@@H](O[C@H]3O[C@H](CO)[C@@H](O)[C@H](N)[C@H]3O)[C@H](N)C[C@@H]2N)[C@H](N)C[C@@H]1O was 1.5 µg/mL

---

# Tested on: Pseudomonas aeruginosa
# ASSAY_DETAILS: Antimicrobial activity against mutS::lox-deficient Pseudomonas aeruginosa PAOMS biofilm by Etest method
# Format: functional
Record form. Attribute: MIC. Fill in for each entry.
Quick reminder: number only, in µg/mL, skip the unit.

// recorded MIC for C[C@@H](O)[C@H]1C(=O)N2C(C(=O)O)=C(SCCNC=N)C[C@H]12 [IMIPENEM ANHYDROUS] : 1.5

Looking up C[C@H]1[C@H](NC(=O)/C(=N\OC(C)(C)C(=O)O)c2csc(N)n2)C(=O)N1S(=O)(=O)O , I see its MIC listed as 2

# compound NC[C@H]1O[C@H](O[C@H]2[C@H](O)[C@@H](O[C@H]3O[C@H](CO)[C@@H](O)[C@H](N)[C@H]3O)[C@H](N)C[C@@H]2N)[C@H](N)C[C@@H]1O ; its MIC = 1.5

Per the record, CC(C)(O/N=C(\C(=O)N[C@@H]1C(=O)N2C(C(=O)[O-])=C(C[n+]3ccccc3)CS[C@H]12)c1csc(N)n1)C(=O)O has MIC of 1.5

// MIC lookup, compound = CO/N=C(\C(=O)N[C@@H]1C(=O)N2C(C(=O)[O-])=C(C[N+]3(C)CCCC3)CS[C@H]12)c1csc(N)n1 [CEFEPIME] , result: 1.5

---

# Tested on: Pseudomonas aeruginosa
# ASSAY_DETAILS: Antimicrobial activity against Pseudomonas aeruginosa PAO1 A biofilm harboring nfxB T248C mutant gene selected at 4 ug/ml of azithromycin after 4 passages by Etest method
# Format: functional
Assignment: determine reported log10(MIC) for the given molecules.
Log10 applied to MIC; unit prior to transform: µg/mL.

For reference, reported log10(MIC) for C[C@@H](O)[C@H]1C(=O)N2C(C(=O)O)=C(SCCNC=N)C[C@H]12 [IMIPENEM ANHYDROUS] stands at -0.42

So, NC[C@H]1O[C@H](O[C@H]2[C@H](O)[C@@H](O[C@H]3O[C@H](CO)[C@@H](O)[C@H](N)[C@H]3O)[C@H](N)C[C@@H]2N)[C@H](N)C[C@@H]1O ? Its log10(MIC) was -0.60

Sure, the documented log10(MIC) for CO/N=C(\C(=O)N[C@@H]1C(=O)N2C(C(=O)[O-])=C(C[N+]3(C)CCCC3)CS[C@H]12)c1csc(N)n1 [CEFEPIME] is 1.08

// sample C[C@H]1[C@H](NC(=O)/C(=N\OC(C)(C)C(=O)O)c2csc(N)n2)C(=O)N1S(=O)(=O)O , its log10(MIC) was -0.12

In plain terms, CC(C)(O/N=C(\C(=O)N[C@@H]1C(=O)N2C(C(=O)[O-])=C(C[n+]3ccccc3)CS[C@H]12)c1csc(N)n1)C(=O)O has a documented log10(MIC) of 0.18

---

# System: Pseudomonas aeruginosa
# ASSAY_DETAILS: Antimicrobial activity against mucA::lox, mutS::lox-deficient Pseudomonas aeruginosa PAOMSAA biofilm harboring nfxB C89T mutant gene selected at 4 ug/ml of azithromycin after 6 passages by Etest method
# Type: functional
QUANTITY: MIC (µg/mL)
State the answer as a number, implicitly in µg/mL.

For this compound ( CC(C)(O/N=C(\C(=O)N[C@@H]1C(=O)N2C(C(=O)[O-])=C(C[n+]3ccccc3)CS[C@H]12)c1csc(N)n1)C(=O)O [CEFTAZIDIME] ), measured MIC is 1.5

The reported MIC of the compound CO/N=C(\C(=O)N[C@@H]1C(=O)N2C(C(=O)[O-])=C(C[N+]3(C)CCCC3)CS[C@H]12)c1csc(N)n1 [CEFEPIME] was 16

Measured MIC of NC[C@H]1O[C@H](O[C@H]2[C@H](O)[C@@H](O[C@H]3O[C@H](CO)[C@@H](O)[C@H](N)[C@H]3O)[C@H](N)C[C@@H]2N)[C@H](N)C[C@@H]1O [TOBRAMYCIN] : 0.5

---

For each of the compounds below, state its MIC.
# Test system: Pseudomonas aeruginosa
# ASSAY_DETAILS: Antimicrobial activity against mutS::lox-deficient Pseudomonas aeruginosa PAOMSB biofilm harboring nfxB T77C mutant gene selected at 4 ug/ml of azithromycin after 6 passages by Etest method
# Assay type: functional
Expressed in µg/mL, but write only the number.

The measured MIC associated with CC(C)(O/N=C(\C(=O)N[C@@H]1C(=O)N2C(C(=O)[O-])=C(C[n+]3ccccc3)CS[C@H]12)c1csc(N)n1)C(=O)O reads 2

Form: compound = NC[C@H]1O[C@H](O[C@H]2[C@H](O)[C@@H](O[C@H]3O[C@H](CO)[C@@H](O)[C@H](N)[C@H]3O)[C@H](N)C[C@@H]2N)[C@H](N)C[C@@H]1O ; MIC = 1

Consider C[C@@H](O)[C@H]1C(=O)N2C(C(=O)O)=C(SCCNC=N)C[C@H]12 [IMIPENEM ANHYDROUS] . Its measured MIC is 0.5

Value of measured MIC for the entry C[C@H]1[C@H](NC(=O)/C(=N\OC(C)(C)C(=O)O)c2csc(N)n2)C(=O)N1S(=O)(=O)O : 1

Field MIC (entry CO/N=C(\C(=O)N[C@@H]1C(=O)N2C(C(=O)[O-])=C(C[N+]3(C)CCCC3)CS[C@H]12)c1csc(N)n1 [CEFEPIME] ) reads 12

---

# System: Pseudomonas aeruginosa
# ASSAY_DETAILS: Antimicrobial activity against mucA::lox, mutS::lox-deficient Pseudomonas aeruginosa PAOMSAB biofilm harboring nfxB T544C mutant gene selected at 4 ug/ml of azithromycin after 1 passages by Etest method
# Type: functional
QUANTITY: MIC

Lab note: CO/N=C(\C(=O)N[C@@H]1C(=O)N2C(C(=O)[O-])=C(C[N+]3(C)CCCC3)CS[C@H]12)c1csc(N)n1 [CEFEPIME] gave MIC of 12 µg/mL

Value of MIC reported for the compound NC[C@H]1O[C@H](O[C@H]2[C@H](O)[C@@H](O[C@H]3O[C@H](CO)[C@@H](O)[C@H](N)[C@H]3O)[C@H](N)C[C@@H]2N)[C@H](N)C[C@@H]1O [TOBRAMYCIN] is 1 µg/mL

C[C@@H](O)[C@H]1C(=O)N2C(C(=O)O)=C(SCCNC=N)C[C@H]12 [IMIPENEM ANHYDROUS] yielded MIC of 1 µg/mL

Kindly note the recorded MIC for C[C@H]1[C@H](NC(=O)/C(=N\OC(C)(C)C(=O)O)c2csc(N)n2)C(=O)N1S(=O)(=O)O [AZTREONAM] , which is 2 µg/mL

Summary for this compound, CC(C)(O/N=C(\C(=O)N[C@@H]1C(=O)N2C(C(=O)[O-])=C(C[n+]3ccccc3)CS[C@H]12)c1csc(N)n1)C(=O)O [CEFTAZIDIME] : MIC is 2 µg/mL
